System: K-562 leukemia
test.description: NCI tumour cell line growth inhibition, 48 h; in the data active = GI50 below about 0.43 µM; inactive = the rest
Labels: true (1) for active, false (0) for inactive

> print(dat)
                                   compound     test.system        cat
1  COc1ccc(Nc2ccnc(N3CCN(c4ccnc5cc(Cl)ccc45)CC3)n2)cc1  K-562 leukemia  false (0)
2            C[n+]1c2ccccc2nc2c(N)cc(N)cc21  K-562 leukemia  false (0)
3  Oc1c(-c2cc(C(F)(F)F)[nH]n2)cc(Cl)c(OCc2ccc(Cl)cc2)c1-c1ccc(Cl)c(C(F)(F)F)c1  K-562 leukemia   true (1)
4  COc1ccc(Nc2ccc([N+](=O)[O-])cc2[N+](=O)[O-])cc1CN(CCCl)CCCl  K-562 leukemia  false (0)
5  CCN1C(=O)N(CC)C2C1NN=c1s/c(=C\c3ccc(F)cc3)c(=O)n12 (stereo not drawn)  K-562 leukemia   true (1)
6    Cc1[nH]c(-c2cc(N)ccc2Cl)c2c1C(=O)CCCC2  K-562 leukemia  false (0)
7  O=C(CN1N=C(c2ccc(F)cc2)CCC1=O)Nc1nc2ccccc2s1  K-562 leukemia  false (0)
8  COc1cc(C(=O)c2cc(C)c3[nH]c4ccc(O)cc4c3c2C)cc(OC)c1OC  K-562 leukemia   true (1)

* * *

Test system: NCI/ADR-RES ovarian
test.description: NCI tumour cell line growth inhibition, 48 h
readout.label: TGI

> print(dat)
                                   compound          test.system  observed.value
1  O=c1[nH]c(Nc2nc3ccccc3[nH]2)nc(O)c1Cc1ccccc1  NCI/ADR-RES ovarian        > 100 µM
2  CN1CCN(CCCCCN=c2cc3c(=O)n(CCCCCN4CCN(C)CC4)c(=O)c4c(NCCCCCN5CCN(C)CC5)cc5c(O)n(CCCCCN6CCN(C)CC6)c(=O)c2c5c4-3)CC1  NCI/ADR-RES ovarian        > 100 µM
3  COc1cc(/C=C/c2ccc3c(Br)cc(Br)c(O)c3n2)ccc1O  NCI/ADR-RES ovarian         1.49 µM
4  CC1C=CC(OC(=O)C(C)(O)CCC(O)(C(=O)OC2CC(O)C(C(C)C)CC2(C)O)C(C)C)(C(C)C)CC1 (stereo not drawn)  NCI/ADR-RES ovarian         2.22 µM
5  CC[C@@]1(O)C(=O)OCc2c1cc1n(c2=O)Cc2c-1nc1ccccc1c2/C=N\NC(=O)C(N)CCSC (stereo partly drawn)  NCI/ADR-RES ovarian         23.9 µM
6  COc1cc(C(=O)Nc2cc(O)c(CC=C(C)C)c(O)c2)cc2c1O[C@]1(C)CC[C@@H](O)C(C)(C)[C@H]1C2  NCI/ADR-RES ovarian        > 100 µM
7  Nc1n[nH]c2ccc([C@@H]3Nc4cc5c(cc4[C@H]4C6CCC(C6)[C@@H]34)C(=O)NC5)cc12 (stereo partly drawn)  NCI/ADR-RES ovarian        > 100 µM
8  CSc1ccc(C2=NN(C(C)=O)C(c3ccc(-c4ccc(Cl)cc4)o3)C2)cc1 (stereo not drawn)  NCI/ADR-RES ovarian        > 100 µM

* * *

System: IGROV1 ovarian
test.description: NCI tumour cell line growth inhibition, 48 h

molecule	test.system	TGI
CN(CCCNC(=O)c1cc(-c2ccccc2)nc2ccccc12)CCCNC(=O)c1cc(-c2ccccc2)nc2ccccc12	IGROV1 ovarian	13.7 µM
O=C1c2ccccc2N2OC3(N4CCCC4)CCCCC3C12c1ccccc1 (configuration not stated)	IGROV1 ovarian	> 100 µM
N#CCCC1(CCC#N)CCCCCCCCC(CCC#N)(CCC#N)C(O)C1O (configuration not stated)	IGROV1 ovarian	> 100 µM
NC(Cc1ccc(S(=O)(=O)O)cc1)C(=O)NC(Cc1ccc(S(=O)(=O)O)cc1)C(=O)NC(Cc1ccc(S(=O)(=O)O)cc1)C(=O)NC(Cc1ccc(S(=O)(=O)O)cc1)C(=O)O (configuration not stated)	IGROV1 ovarian	> 100 µM
CN(C)CCNC(=O)c1cccc2c(NC(CCC(N)=O)C(=O)O)c3ccccc3nc12 (configuration not stated)	IGROV1 ovarian	36.6 µM
COC(=O)Cc1c(-c2c(CC(=O)OC)c3ccccc3n2C2OC(COC(C)=O)C(OC(C)=O)C(OC(C)=O)C2OC(C)=O)[nH]c2ccccc12 (configuration not stated)	IGROV1 ovarian	> 100 µM
C=C1CC[C@@H](C)[C@](C)(CCc2ccoc2)C/C=C\C=C/1C(=O)O	IGROV1 ovarian	> 100 µM
Oc1cc(-n2cccn2)c(O)cc1-n1cccn1	IGROV1 ovarian	> 75.9 µM
COc1cc(-c2nn(-c3cccc(NC(=O)CCN4CCN(Cc5ccccc5)CC4)c3)cc2-c2ccncc2)ccc1Cl	IGROV1 ovarian	7.88 µM
COc1ccc(CNc2cc(=O)n(C)c(=O)[nH]2)cc1	IGROV1 ovarian	> 100 µM
C[C@@H]1O[C@@H](O[C@@H]2[C@@H](O)[C@H](OCCc3ccc(O)c(O)c3)O[C@H](CO)[C@H]2OC(=O)/C=C/c2ccc(O)c(O)c2)[C@H](O)[C@H](OC2OC[C@](O)(CO)[C@H]2O)[C@H]1O (some centres not stated)	IGROV1 ovarian	> 100 µM
CN1CCN(CCCCCN=c2cc3c(=O)n(CCCCCN4CCN(C)CC4)c(=O)c4c(NCCCCCN5CCN(C)CC5)cc5c(O)n(CCCCCN6CCN(C)CC6)c(=O)c2c5c4-3)CC1	IGROV1 ovarian	29.4 µM

* * *

Tested on: HL-60(TB) leukemia
test.description: NCI tumour cell line growth inhibition, 48 h
readout.label: GI50

compound	observed.value
Cc1ccc(C2C3Cc4ccccc4C3=NN2c2ccc(S(=O)(=O)/N=c3\scc(-c4ccccc4)n3-c3ccccc3)cc2)cc1 (configuration not stated)	14500 nM
COc1cc(-c2nn(-c3cccc(NC(=O)CCN4CCN(Cc5ccccc5)CC4)c3)cc2-c2ccncc2)ccc1Cl	632 nM
C[C@@H]1O[C@@H](O[C@@H]2[C@@H](O)[C@H](OCCc3ccc(O)c(O)c3)O[C@H](CO)[C@H]2OC(=O)/C=C/c2ccc(O)c(O)c2)[C@H](O)[C@H](OC2OC[C@](O)(CO)[C@H]2O)[C@H]1O (some centres not stated)	> 100000 nM
O=C(CN1N=C(c2ccc(F)cc2)CCC1=O)Nc1nc2ccccc2s1	3680 nM
C[CH2][Hg][S]c1ccccc1C(=O)O	314 nM
Oc1c(-c2cc(C(F)(F)F)[nH]n2)cc(Cl)c(OCc2ccc(Cl)cc2)c1-c1ccc(Cl)c(C(F)(F)F)c1	677 nM
COc1cc2cc(Oc3ccc(NC(=O)c4ccc(Cl)c(Cl)c4)cc3)c(C)nc2cc1OC	> 100000 nM

* * *

System: COLO 205 colon
test.description: NCI tumour cell line growth inhibition, 48 h
# reported GI50; entries follow
readout.label: GI50

> print(dat)
                                        smi  observed.value
1  O=C1C(OCCOc2ccccc2)=C(OCCOc2ccccc2)C(=O)c2ccccc21         41.9 µM
2  O=C(NNS(=O)(=O)c1ccc(Cl)cc1Cl)c1cccnc1Nc1ccc(Cl)cc1         12.1 µM
3  COc1ccc2c(-c3ccnc(Nc4cccc(OC(F)(F)F)c4)n3)cnn2n1          1.3 µM

* * *

System: SK-MEL-28 melanoma
test.description: NCI tumour cell line growth inhibition, 48 h; in the data active = GI50 below about 0.43 µM; inactive = the rest
Labels: active, inactive

> print(dat)
                                    molecule         test.system       cat
 1  C/C(=N\O)c1cccc(Nc2cc(-n3ccnc3)c3ccccc3n2)c1  SK-MEL-28 melanoma  inactive
 2  C[C@@H]1Cc2cc(O)ccc2[C@H]2CC[C@]3(C)/C(=C/COCCN(C)C)CC[C@H]3[C@H]12 (tested in a mixture with another compound)  SK-MEL-28 melanoma  inactive
 3  FC(F)(F)c1cccc(-c2nn3ncccc3c2-c2ccnc(Nc3ccc4c(c3)OCCO4)n2)c1  SK-MEL-28 melanoma  inactive
 4  CN1CCc2nc3sc(C(N)=O)c(N)c3c(-c3cccs3)c2C1  SK-MEL-28 melanoma  inactive
 5  COc1ccc2c(c1)C(=O)c1c-2c(OCCN(C)C)nc2ccccc12  SK-MEL-28 melanoma  inactive
 6  Oc1c(-c2cc(C(F)(F)F)[nH]n2)cc(Cl)c(OCc2ccc(Cl)cc2)c1-c1ccc(Cl)c(C(F)(F)F)c1  SK-MEL-28 melanoma    active
 7  c1cc(N2CCN(c3ccc(C4=NCCCN4)cc3)CC2)ccc1C1=NCCCN1  SK-MEL-28 melanoma  inactive
 8                           Cc1ccncc1C(N)=O  SK-MEL-28 melanoma  inactive
 9  CCN1C(=O)N(CC)C2C1NN=c1s/c(=C\c3ccc(F)cc3)c(=O)n12 (stereo not given)  SK-MEL-28 melanoma  inactive
10              CCc1c(C)nc2sc3c(N)ncnc3c2c1C  SK-MEL-28 melanoma  inactive
11  CC(C)C[C@H](NC(=O)CCn1ccc2ccccc2c1=O)B(O)O  SK-MEL-28 melanoma  inactive
12  CC1C=CC(OC(=O)C(C)(O)CCC(O)(C(=O)OC2CC(O)C(C(C)C)CC2(C)O)C(C)C)(C(C)C)CC1 (stereo not given)  SK-MEL-28 melanoma  inactive
13  COc1ccc(Nc2ccc([N+](=O)[O-])cc2[N+](=O)[O-])cc1CN(CCCl)CCCl  SK-MEL-28 melanoma  inactive
14            COc1cc2ncc3c(nc4sccn43)c2cc1OC  SK-MEL-28 melanoma  inactive
15  Nc1n[nH]c2ccc([C@@H]3Nc4cc5c(cc4[C@H]4C6CCC(C6)[C@@H]34)C(=O)NC5)cc12 (stereo not given in full)  SK-MEL-28 melanoma  inactive

Hey, just so you know, these numbers are from PubChem BioAssay (NCI).
